- System: MV4-11
- protocol_text: CellTox Green cytotoxicity fluorescence relative to DMSO vehicle (fold of vehicle RFU); higher = more cell death (loss of membrane integrity), active = 2 or more
- conditions_used: 0.1 µM; 48 h
measured_parameter: CellTox Green cytotoxicity fluorescence
The reply should be a number, written without any unit.

Examples with answers:
-- ask Any idea what its CellTox Green cytotoxicity fluorescence is? The compound is `CN1CCN(CCCNc2ncc(Cl)c(-c3cc4c(C(=O)NC5CC5)cccc4s3)n2)CC1`
-- reply 0.966

-- ask Which CellTox Green cytotoxicity fluorescence is listed for `CC(C)c1ccccc1Cc1cc(C(=O)Nc2ccc(S(=O)(=O)c3ccccc3C(C)(C)C)cc2)c(O)c(O)c1O` ?
-- reply 0.944

-- ask Returns the measured CellTox Green cytotoxicity fluorescence for the input compound. Input: O=C(COc1ccc(Cl)cc1)NC1CCC(NC(=O)COc2ccc(Cl)cc2)CC1 (centres undefined)
-- reply 1.02

-- ask // returns reported CellTox Green cytotoxicity fluorescence for input CCOC(=O)C1=C(N)Oc2ccc(Br)cc2C1C(C#N)C(=O)OCC (centres undefined)
-- reply 0.944

-- ask May I ask what CellTox Green cytotoxicity fluorescence has been recorded for `C=CCc1cccc(/C=N/NC(=O)CN2CCN(Cc3ccccc3)CC2)c1O` ?
-- reply 0.951

-- ask Find the recorded CellTox Green cytotoxicity fluorescence belonging to `c1ccc2c(CCNc3ccc(Nc4ccncc4)cc3)c[nH]c2c1` and report it.
-- reply 0.918

-- ask Look up CellTox Green cytotoxicity fluorescence: `O=C1NC(=NCc2cccs2)S/C1=C\c1ccc2ncccc2c1`
-- reply 0.979

-- ask Param item = `COC(=O)[C@H](CCSC)NC(=O)c1ccc(NC[C@@H](N)CS)cc1-c1ccccc1` ; retrieve measured CellTox Green cytotoxicity fluorescence.
-- reply 0.943

Now consider the entry below.
-- ask Fill blank: measured CellTox Green cytotoxicity fluorescence of the compound `CC1(C)CCC(c2ccc(Cl)cc2)=C(CN2CCN(c3ccc(C(=O)NS(=O)(=O)c4ccc(N[C@H](CCN5CCOCC5)CSc5ccccc5)c(S(=O)(=O)C(F)(F)F)c4)cc3)CC2)C1` is ____.
-- reply 1.41
